tested on: P388 leukemia ip, CD2F1 mice, survival T/C; experiment: NCI In Vivo Anticancer Drug Screen. Data for tumor model P388 Leukemia (intraperitoneal) in CD2F1 (CDF1) mice; conditions: endpoint: median survival time; dose: 50.0 mg/kg/injection; schedule: Q01DX009 (ip); vehicle: saline with Tween-80; higher = longer survival
Inconclusive results and toxic doses are left out.

# COMPOUND, TARGET_OR_SYSTEM, T/C
data = [
    ("COC1(OC)/C(=N/NS(=O)(=O)c2ccc(C)cc2)C2CC1C1CC21 (stereo not drawn)", "P388 leukemia ip, CD2F1 mice, survival T/C", "96 % of control"),
    ("O=C1O/C(=C\\c2ccccc2)c2c(Br)c(Br)c(Br)c(Br)c21", "P388 leukemia ip, CD2F1 mice, survival T/C", "94 % of control"),
    ("CCOC(=O)C1(Br)CCCCC1", "P388 leukemia ip, CD2F1 mice, survival T/C", "109 % of control"),
    ("CN1CCC(=C2c3ccccc3C(=O)C(=O)c3sccc32)CC1", "P388 leukemia ip, CD2F1 mice, survival T/C", "95 % of control"),
    ("CCOC(=O)C(c1ccccc1)(S(C)(=O)=O)S(C)(=O)=O", "P388 leukemia ip, CD2F1 mice, survival T/C", "104 % of control"),
    ("CCC[CH2][Sn]([CH2]CCC)([CH2]CCN(C)C)[CH2]CCN(C)C", "P388 leukemia ip, CD2F1 mice, survival T/C", "97 % of control"),
    ("O=C1CSC(=S)N1C1CC1", "P388 leukemia ip, CD2F1 mice, survival T/C", "95 % of control"),
    ("COc1ccc(/C(=C(\\c2ccccc2)[N+](=O)[O-])c2ccc(OCCN3CCCC3)cc2)cc1", "P388 leukemia ip, CD2F1 mice, survival T/C", "100 % of control"),
    ("O=C(/C=C/c1ccccc1O)c1ccccc1", "P388 leukemia ip, CD2F1 mice, survival T/C", "97 % of control"),
    ("CCOC(=O)N1CCN(CCCCCOc2ccc(CC(C)(C)C)cc2Cl)CC1", "P388 leukemia ip, CD2F1 mice, survival T/C", "106 % of control"),
    ("Cn1cnc([N+](=O)[O-])c1Sc1ncccn1", "P388 leukemia ip, CD2F1 mice, survival T/C", "98 % of control"),
    ("Nc1nc(N)c2cc(Sc3ccc4ccccc4c3)ccc2n1", "P388 leukemia ip, CD2F1 mice, survival T/C", "119 % of control"),
    ("O=C(N/N=C/c1ccc(F)cc1)c1ccncc1", "P388 leukemia ip, CD2F1 mice, survival T/C", "91 % of control"),
    ("NC(=S)N/N=C\\C12CC3CC(CC(C3)C1)C2", "P388 leukemia ip, CD2F1 mice, survival T/C", "96 % of control"),
    ("CN(CCC#N)c1ccc(/C=C(\\C#N)C(N)=O)cc1", "P388 leukemia ip, CD2F1 mice, survival T/C", "98 % of control"),
    ("CC(C)(C)c1cc2c(c(C(C)(C)C)c1)OP(F)(c1ccccc1)(c1ccccc1)N2", "P388 leukemia ip, CD2F1 mice, survival T/C", "89 % of control"),
    ("OCNC(=S)c1c(Cl)cccc1Cl", "P388 leukemia ip, CD2F1 mice, survival T/C", "111 % of control"),
    ("COCC/C=C\\CN(C(C)C)C(C)C", "P388 leukemia ip, CD2F1 mice, survival T/C", "99 % of control"),
    ("CCCC(=O)OCC1OC(n2cnc3c(=S)nc[nH]c32)C(OC(=O)CCC)C1OC(=O)CCC (stereo not drawn)", "P388 leukemia ip, CD2F1 mice, survival T/C", "116 % of control"),
    ("O=C(O)c1ccccc1C(=O)n1cnc2ccccc21", "P388 leukemia ip, CD2F1 mice, survival T/C", "87 % of control"),
    ("Cc1cc(O)c(C(c2ccc3c(c2)OCO3)c2c(O)cc(C)[nH]c2=O)c(=O)[nH]1", "P388 leukemia ip, CD2F1 mice, survival T/C", "92 % of control"),
    ("CCC/C=C1\\OC(=O)c2ccccc21", "P388 leukemia ip, CD2F1 mice, survival T/C", "104 % of control"),
    ("CC(C)CC(=O)CC1(C)CCC(c2ccoc2)O1 (stereo not drawn)", "P388 leukemia ip, CD2F1 mice, survival T/C", "101 % of control"),
]
